The reported measurements were obtained from patent US5041552A.

TARGET: angiotensin II receptor (rat liver membranes) (Rattus norvegicus)
Sequence (P25095 1-359): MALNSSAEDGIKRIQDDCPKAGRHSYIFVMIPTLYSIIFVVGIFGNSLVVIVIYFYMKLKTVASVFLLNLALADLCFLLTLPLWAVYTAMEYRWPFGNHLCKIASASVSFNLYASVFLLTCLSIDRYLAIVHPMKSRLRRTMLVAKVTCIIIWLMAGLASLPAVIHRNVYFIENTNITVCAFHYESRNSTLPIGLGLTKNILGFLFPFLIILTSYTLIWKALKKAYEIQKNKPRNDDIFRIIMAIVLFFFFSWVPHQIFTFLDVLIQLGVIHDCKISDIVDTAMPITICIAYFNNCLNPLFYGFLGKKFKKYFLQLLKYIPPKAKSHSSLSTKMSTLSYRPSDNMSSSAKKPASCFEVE
REPORTED_PROPERTY: IC50 (µM)
# number only, unit µM dropped from output

CCCCc1nc(Cl)c(CO)n1Cc1ccc(NC(=O)[C@H](CC#N)NC(=O)OCc2ccccc2)cc1 [Example 5]	3

Q. What does the data say about its IC50? Entry: CCCCc1nc(Cl)c(CO)n1Cc1ccc(NC(=O)C(NC(=O)OC(C)(C)C)C(=O)O)cc1 (racemic) [Example 11]
A. 6

Q. What does the data say about its IC50? Entry: CCCCc1nc(Cl)c(CO)n1Cc1ccc(NC(=O)C(NC(=O)OCc2ccccc2)C(=O)O)cc1 (racemic) [Example 13]
A. 10
